In this section, each of the variants is paired with its reported FACS-Seq fitted mean (log10).
B1: library; a variant is named by its letters at N, in order (parent)
chain: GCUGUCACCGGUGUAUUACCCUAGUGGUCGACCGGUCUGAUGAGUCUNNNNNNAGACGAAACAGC

# Variants of: B1
# measurement notes: FACS-Seq fitted mean relative fluorescence mCherry/BFP without ligand (log10 relative fluorescence); ligand: hypoxanthine (xanthine aptamer); higher = higher reporter protein expression
# cond: HEK293T, ligand present: no
# answer = number (no unit)

Solved cases (5 shown):
{"mut": "AUGGUG", "FACS-Seq fitted mean (log10)": -0.243}
{"mut": "GCGAGG", "FACS-Seq fitted mean (log10)": -0.188}
{"mut": "AAUUGA", "FACS-Seq fitted mean (log10)": -0.0788}
{"mut": "GGUGAC", "FACS-Seq fitted mean (log10)": 0.507}
{"mut": "GGAAUA", "FACS-Seq fitted mean (log10)": 0.68}

Ask: Fill blank: measured FACS-Seq fitted mean (log10) of the variant AACUGG is ____.
Result: 0.285

Ask: I am curious: what FACS-Seq fitted mean (log10) value has been reported for CAAGCC ?
Result: 0.17

Ask: Can you share its FACS-Seq fitted mean (log10)? I mean this variant: CCAAAC
Result: 0.763
